Source of measurements: patent EP4678638A1

# Tested on: H1975-1µM Osimertinib cells
# measurement.protocol: CCK-8 proliferation, osimertinib-resistant H1975 cells
# Assay type: cell-based, Human
# protocol.conditions: Homo sapiens, NCI-H1975; CCK-8; osimertinib-resistant H1975 cells obtained by treating H1975 cells with 1 µM Osimertinib for 3 months; read-out: Inhibitory activity (IC50) on tumor cell proliferation, H1975-1µm Osimertinib
result.type: IC50

Some molecules with known IC50 results, for comparison:
CC(C)n1nc(N2CCC(N3CCN(Cc4ccc(C5CCC(=O)NC5=O)cc4)CC3)CC2)c2cnc(Nc3ccnc(-c4cnn(S(=O)(=O)C5CC5)c4)n3)cc21 (centres unmarked) [GT-06078]    100 to 500 nM
COc1cc(N2CCC(N(C)Cc3cccc(N4CCC(=O)NC4=O)c3)CC2)c(C)cc1Nc1ncc(Br)c(Nc2ccc3nccnc3c2P(C)(C)=O)n1 [GT-04214]    100 to 500 nM
COc1cc(N2CCN(Cc3ccc(N4CCC(=O)NC4=O)nc3)CC2)c(C)cc1Nc1ncc(Br)c(Nc2ccc3nccnc3c2P(C)(C)=O)n1 [GT-05947]    100 to 500 nM

Asked: Identify the measured IC50 of O=C1CCC(Nc2cccc(CN3CCN(C4CCN(c5ccc(-c6cc(F)c7c(c6)C(=O)N(C(C(=O)Nc6nccs6)c6ncn8c6CCC8)C7)cc5)CC4)CC3)c2)C(=O)N1 (centres unmarked) [GT-06247] for H1975-1µM Osimertinib cells.
Given back: 50 to 100 nM

Asked: Input O=C1CCC(c2ccc(CN3CCN(C4CCN(c5ccc(Nc6ncc7nc(Nc8ccccc8)n(C8CCCC8)c7n6)cc5)CC4)CC3)cc2)C(=O)N1 (centres unmarked) [GT-05915]
Given back: 500 to 1000 nM

---

# target.desc: human Cereblon WT GST-tagged protein (Homo sapiens)
# Construct: purchased CISBIO 64BDCRBNPEH
# Sequence (Q96SW2 whole entry): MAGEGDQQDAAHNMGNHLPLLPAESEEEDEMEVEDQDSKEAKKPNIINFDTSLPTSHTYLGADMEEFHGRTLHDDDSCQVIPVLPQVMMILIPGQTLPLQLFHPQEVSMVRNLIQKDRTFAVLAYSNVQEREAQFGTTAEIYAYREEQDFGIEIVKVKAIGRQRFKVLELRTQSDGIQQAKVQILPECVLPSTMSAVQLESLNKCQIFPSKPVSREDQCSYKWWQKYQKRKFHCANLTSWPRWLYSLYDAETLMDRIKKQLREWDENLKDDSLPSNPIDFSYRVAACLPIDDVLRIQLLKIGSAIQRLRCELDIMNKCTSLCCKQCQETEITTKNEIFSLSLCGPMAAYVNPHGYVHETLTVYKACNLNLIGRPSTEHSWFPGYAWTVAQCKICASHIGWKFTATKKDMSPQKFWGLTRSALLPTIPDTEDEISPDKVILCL
# measurement.protocol: CRBN binding, HTRF (CEREBLON BINDING kit)
# protocol.conditions: Table II-2, CRBN binding screening, HTRF; at 0.5µM; read-out: Inhibition rate (%) at 0.5µM
Reported inhibition at 0.5 µM values for a set of molecules

Some molecules with known inhibition at 0.5 µM results, for comparison:
CCc1cc2c(cc1N1CCC(N3CCN(Cc4ccc(C5CCC(=O)NC5=O)c(F)c4)CC3)CC1)C(C)(C)c1[nH]c3cc(C#N)ccc3c1C2=O (stereo not shown)    40 to 53%
CN(C)C(=O)c1cc2cnc(Nc3ccc(N4CCN(Cc5cc(N6CCC(=O)NC6=O)cnc5F)CC4)cn3)nc2n1C1CCCC1    30 to 40%

Asked: Identify the measured inhibition at 0.5 µM of O=C1CCC(c2cncc(CN3CCC(n4cc(NC(=O)c5cnn6ccc(N7C[C@H]8C[C@@H]7CO8)nc56)c(C(F)F)n4)CC3)c2)C(=O)N1 (stereo partly shown) for human Cereblon WT GST-tagged protein (Homo sapiens).
Given back: 40 to 53%

Asked: Input Cc1nc2c(F)cc(-c3nc(Nc4ccc(N5CCC(N6CCN(Cc7ccc(C8CCC(=O)NC8=O)cc7)CC6)CC5)cn4)ncc3F)cc2n1C(C)C (stereo not shown)
Given back: 40 to 53%

---

# target.desc: human Cereblon WT GST-tagged protein (Homo sapiens)
# Construct: purchased CISBIO 64BDCRBNPEH
# measurement.protocol: CRBN binding, HTRF (CEREBLON BINDING kit)
# protocol.conditions: Table II-2, CRBN binding screening, HTRF; at 2 µM; read-out: Inhibition rate (%) at 2 µM
Reported inhibition at 2 µM values for a set of molecules

Some molecules with known inhibition at 2 µM results, for comparison:
O=C1CCC(c2ccc(CN3CCC(n4cc(NC(=O)c5cnn6ccc(N7CCOCC7)nc56)c(C(F)F)n4)CC3)nc2)C(=O)N1 (stereo not drawn) [GT-07769]    80 to 100%
Cc1ccc(C(=O)Nc2ccc(N3CCC(N(C)Cc4ccc(C5CCC(=O)NC5=O)cc4)CC3)c(C(F)(F)F)c2)cc1C#Cc1cnc2cccnn12 (stereo not drawn) [GT-04106]    60 to 80%
CN(C)C(=O)c1cc2cnc(Nc3ccc(N4CCN(Cc5ccc(C6CCC(=O)NC6=O)cn5)CC4)cn3)nc2n1C1CCCC1 (stereo not drawn) [GT-07477]    60 to 80%
O=C1CCC(c2cncc(CN3CCC(n4cc(NC(=O)c5cnn6ccc(N7C[C@H]8C[C@@H]7CO8)nc56)c(C(F)F)n4)CC3)c2)C(=O)N1 (stereo partly drawn) [GT-07778]    80 to 100%

Asked: Entry CC(=O)c1c(C)c2cnc(Nc3ccc(N4CCN(Cc5ccc(C6CCC(=O)NC6=O)cn5)CC4)cn3)nc2n(C2CCCC2)c1=O (stereo not drawn) [GT-07483] has what inhibition at 2 µM?
Given back: 80 to 100%

Asked: Input C[C@@H]1CNC(=O)c2cc3ccc(C(=O)Nc4cnn(Cc5ccc(N6CCC(N(C)Cc7cc(C8CCC(=O)NC8=O)cnc7F)CC6)cc5)c4)nc3n21 (stereo partly drawn) [GT-07946]
Given back: 60 to 80%
